From: ChEMBL document CHEMBL4229471

# TEST TARGET: Cruzipain (Trypanosoma cruzi)
# EXPERIMENT NOTES: Inhibition of Trypanosoma cruzi cruzain at 20 uM relative to control
READOUT LABEL: inhibition (%)

- SMILES STRUCTURE: "CCOC(=O)/C=C/C(=O)[C@H](CC(C)C)NC(=O)[C@H](CC(C)C)NC(=O)N1CCOCC1"
  OBSERVED: 100
- SMILES STRUCTURE: "CCOC(=O)/C=C/C(=O)[C@H](CCc1ccccc1)NC(=O)[C@H](Cc1ccccc1)NC(=O)N1CCOCC1"
  OBSERVED: 100
- SMILES STRUCTURE: "CCOC(=O)/C=C/C(=O)[C@@H](CC(C)C)NC(=O)[C@H](Cc1ccccc1)NC(=O)OCc1ccccc1"
  OBSERVED: 100
- SMILES STRUCTURE: "CCOC(=O)/C=C/C(=O)[C@H](CCc1ccccc1)NC(=O)[C@H](Cc1ccccc1)NC(=O)OCc1ccccc1"
  OBSERVED: 99
- SMILES STRUCTURE: "CCOC(=O)/C=C/[C@@H](O)[C@H](CCc1ccccc1)NC(=O)[C@H](Cc1ccccc1)NC(=O)N1CCOCC1"
  OBSERVED: 95
- SMILES STRUCTURE: "CCOC(=O)/C=C/C(=O)[C@H](CC(C)C)NC(=O)[C@H](Cc1ccccc1)NC(=O)OCc1ccccc1"
  OBSERVED: 100
- SMILES STRUCTURE: "O=C(O)/C=C/[C@@H](O)[C@H](CCc1ccccc1)NC(=O)[C@H](Cc1ccccc1)NC(=O)OCc1ccccc1"
  OBSERVED: 12
- SMILES STRUCTURE: "CCOC(=O)/C=C/[C@@H](O)[C@H](CCc1ccccc1)NC(=O)[C@H](CC(C)C)NC(=O)OCc1ccccc1"
  OBSERVED: 9
- SMILES STRUCTURE: "CCOC(=O)/C=C/C(=O)[C@H](C)NC(=O)[C@H](CC(C)C)NC(=O)OCc1ccccc1"
  OBSERVED: 99
- SMILES STRUCTURE: "CCOC(=O)/C=C/C(=O)[C@H](CCc1ccccc1)NC(=O)[C@H](CC(C)C)NC(=O)OCc1ccccc1"
  OBSERVED: 100
- SMILES STRUCTURE: "O=C(/C=C/[C@@H](O)[C@H](CCc1ccccc1)NC(=O)[C@H](Cc1ccccc1)NC(=O)OCc1ccccc1)NCc1ccccc1"
  OBSERVED: 41
- SMILES STRUCTURE: "CCOC(=O)/C=C/[C@@H](O)[C@H](CCc1ccccc1)NC(=O)[C@H](Cc1ccccc1)NC(=O)OCc1ccccc1"
  OBSERVED: 18
- SMILES STRUCTURE: "CCOC(=O)/C=C/[C@@H](O)[C@H](C)NC(=O)[C@H](Cc1ccccc1)NC(=O)OCc1ccccc1"
  OBSERVED: 30
- SMILES STRUCTURE: "CCOC(=O)/C=C/C(=O)[C@@H](CCc1ccccc1)NC(=O)[C@H](Cc1ccccc1)NC(=O)N1CCOCC1"
  OBSERVED: 99
- SMILES STRUCTURE: "CCOC(=O)/C=C/[C@H](O)[C@H](CCc1ccccc1)NC(=O)[C@H](Cc1ccccc1)NC(=O)OCc1ccccc1"
  OBSERVED: 37
- SMILES STRUCTURE: "CCOC(=O)/C=C/C(=O)[C@H](C)NC(=O)[C@H](Cc1ccccc1)NC(=O)OCc1ccccc1"
  OBSERVED: 100
